system: panel of human cell lines; assay: In vitro proliferation assay, Cell Titer Glo, two doubling times, 298 cell lines; assay type: cell-based; conditions: Homo sapiens, JHH7, JHH-7, liver; read-out: ABS_IC50_VALUE

COMPOUND: O=c1[nH]ccc2cc(F)c(NS(=O)(=O)c3ccc(N4CC[C@@H](O)C4)s3)cc12 [LSN3213128]
IC50, µM: 28.3

* * *

Tested on: panel of human cell lines
Test: In vitro proliferation assay, Cell Titer Glo, two doubling times, 298 cell lines
Format: cell-based
Conditions: Homo sapiens, MDA-MB-453, MDA-MB-453, breast; read-out: ABS_IC50_VALUE
Description: Cell Titer Glo measures ATP, thus the IC50s represent both the effect on purine production and cell proliferation, which are related. […] Cells were cultured using recommended culture conditions unless noted otherwise (Supplemental Table 3). Cells were plated, dosed with compound and incubated at 37 °C for approximately 2 doubling times as determined for each cell line. […]
OBSERVED_PROPERTY: IC50

MOLECULE: O=c1[nH]ccc2cc(F)c(NS(=O)(=O)c3ccc(N4CC[C@@H](O)C4)s3)cc12 [LSN3213128]
OBSERVED_PROPERTY: IC50
EXPERIMENTAL_VALUE: > 20 µM

* * *

tested on: HCT 116 (colon); assay: MS detection of ZMP in cultured cells; assay type: cell-based; details: Homo sapiens, low folate RPMI media, 16 hours, read-out: ZMP EC50 Low folate
pEC50: −log10 of the molar value.
OBSERVED_PROPERTY: pEC50

STRUCTURE_NOTATION: O=c1[nH]ccc2cc(F)c(NS(=O)(=O)c3ccc(N4CC[C@@H](O)C4)s3)cc12
OBSERVED_PROPERTY: pEC50
EXPERIMENTAL_VALUE: 8.57

* * *

test system: panel of human cell lines; experiment: In vitro proliferation assay, Cell Titer Glo, two doubling times, 298 cell lines; format: cell-based; details: Homo sapiens, HCC70, HCC70, breast; read-out: ABS_IC50_VALUE

STRUCTURE_NOTATION: O=c1[nH]ccc2cc(F)c(NS(=O)(=O)c3ccc(N4CC[C@@H](O)C4)s3)cc12
IC50: > 20 µM

* * *

system: panel of human cell lines; assay: In vitro proliferation assay, Cell Titer Glo, two doubling times, 298 cell lines; type: cell-based; details: Homo sapiens, NCI-H929, NCI-H929, haematopoietic and lymphoid tissue; read-out: ABS_IC50_VALUE
OBSERVED_PROPERTY: IC50

COMPOUND: O=c1[nH]ccc2cc(F)c(NS(=O)(=O)c3ccc(N4CC[C@@H](O)C4)s3)cc12 [LSN3213128]
MEASURED_ON: panel of human cell lines
EXPERIMENTAL_VALUE: > 20 µM

* * *

System: panel of human cell lines
Assay: In vitro proliferation assay, Cell Titer Glo, two doubling times, 298 cell lines
Format: cell-based
Settings: Homo sapiens, SK-HEP1, SK-HEP-1, liver; read-out: ABS_IC50_VALUE
Method: Cell Titer Glo measures ATP, thus the IC50s represent both the effect on purine production and cell proliferation, which are related. […] Cells were cultured using recommended culture conditions unless noted otherwise (Supplemental Table 3). Cells were plated, dosed with compound and incubated at 37 °C for approximately 2 doubling times as determined for each cell line. […]
pIC50: −log10 of the molar value.

STRUCTURE_NOTATION: O=c1[nH]ccc2cc(F)c(NS(=O)(=O)c3ccc(N4CC[C@@H](O)C4)s3)cc12
pIC50: 4.96

* * *

Test system: panel of human cell lines
Assay: In vitro proliferation assay, Cell Titer Glo, two doubling times, 298 cell lines
Assay type: cell-based
Settings: Homo sapiens, CAPAN-1, CAPAN-1, pancreas; read-out: ABS_IC50_VALUE
Experimental: Cell Titer Glo measures ATP, thus the IC50s represent both the effect on purine production and cell proliferation, which are related. […] Cells were cultured using recommended culture conditions unless noted otherwise (Supplemental Table 3). Cells were plated, dosed with compound and incubated at 37 °C for approximately 2 doubling times as determined for each cell line. […]

STRUCTURE_NOTATION: O=c1[nH]ccc2cc(F)c(NS(=O)(=O)c3ccc(N4CC[C@@H](O)C4)s3)cc12
MEASURED_ON: panel of human cell lines
IC50: > 20 µM

* * *

tested on: panel of human cell lines; experiment: In vitro proliferation assay, Cell Titer Glo, two doubling times, 298 cell lines; type: cell-based; conditions: Homo sapiens, 22Rv1, 22RV1, prostate; read-out: ABS_IC50_VALUE
pIC50: −log10 of the molar value.

COMPOUND: O=c1[nH]ccc2cc(F)c(NS(=O)(=O)c3ccc(N4CC[C@@H](O)C4)s3)cc12 [LSN3213128]
pIC50: 4.86

* * *

tested on: panel of human cell lines; assay: In vitro proliferation assay, Cell Titer Glo, two doubling times, 298 cell lines; format: cell-based; settings: Homo sapiens, PF-382, PF-382, haematopoietic and lymphoid tissue; read-out: ABS_IC50_VALUE

COMPOUND: O=c1[nH]ccc2cc(F)c(NS(=O)(=O)c3ccc(N4CC[C@@H](O)C4)s3)cc12 [LSN3213128]
SCALE_UNIT: µM
IC50: 2.13

* * *

system: panel of human cell lines; assay: In vitro proliferation assay, Cell Titer Glo, two doubling times, 298 cell lines; type: cell-based; details: Homo sapiens, KM12, KM12, large intestine; read-out: ABS_IC50_VALUE
OBSERVED_PROPERTY: IC50 (nM)

MOLECULE: O=c1[nH]ccc2cc(F)c(NS(=O)(=O)c3ccc(N4CC[C@@H](O)C4)s3)cc12 [LSN3213128]
SCALE_UNIT: nM
EXPERIMENTAL_VALUE: 2050

* * *

system: panel of human cell lines; assay: In vitro proliferation assay, Cell Titer Glo, two doubling times, 298 cell lines; format: cell-based; conditions: Homo sapiens, NCI-SNU-5, stomach; read-out: ABS_IC50_VALUE
pIC50: −log10 of the molar value.
OBSERVED_PROPERTY: pIC50

MOLECULE: O=c1[nH]ccc2cc(F)c(NS(=O)(=O)c3ccc(N4CC[C@@H](O)C4)s3)cc12 [LSN3213128]
MEASURED_ON: panel of human cell lines
EXPERIMENTAL_VALUE: < 4.70

* * *

system: panel of human cell lines; test: In vitro proliferation assay, Cell Titer Glo, two doubling times, 298 cell lines; assay type: cell-based; details: Homo sapiens, NCI-H1155, NCI-H1155, lung; read-out: ABS_IC50_VALUE
pIC50: −log10 of the molar value.

STRUCTURE_NOTATION: O=c1[nH]ccc2cc(F)c(NS(=O)(=O)c3ccc(N4CC[C@@H](O)C4)s3)cc12
MEASURED_ON: panel of human cell lines
pIC50: 4.87

* * *

tested on: panel of human cell lines; experiment: In vitro proliferation assay, Cell Titer Glo, two doubling times, 298 cell lines; type: cell-based; settings: Homo sapiens, NCI-H2085, lung; read-out: ABS_IC50_VALUE
OBSERVED_PROPERTY: IC50

STRUCTURE_NOTATION: O=c1[nH]ccc2cc(F)c(NS(=O)(=O)c3ccc(N4CC[C@@H](O)C4)s3)cc12
OBSERVED_PROPERTY: IC50
EXPERIMENTAL_VALUE: > 20 µM

* * *

system: NCI-H1299; experiment: MS detection of ZMP in cultured cells; assay type: cell-based; conditions: Homo sapiens, low folate RPMI media, 16 hours
pEC50: −log10 of the molar value.

COMPOUND: O=c1[nH]ccc2cc(F)c(NS(=O)(=O)c3ccc(N4CC[C@@H](O)C4)s3)cc12 [LSN3213128]
pEC50: 8.39

* * *

tested on: panel of human cell lines; assay: In vitro proliferation assay, Cell Titer Glo, two doubling times, 298 cell lines; format: cell-based; settings: Homo sapiens, G-361, G-361, skin; read-out: ABS_IC50_VALUE

MOLECULE: O=c1[nH]ccc2cc(F)c(NS(=O)(=O)c3ccc(N4CC[C@@H](O)C4)s3)cc12 [LSN3213128]
IC50: > 20 µM

* * *

Tested on: panel of human cell lines
Experiment: In vitro proliferation assay, Cell Titer Glo, two doubling times, 298 cell lines
Type: cell-based
Details: Homo sapiens, NCI-H226, NCI-H226, lung; read-out: ABS_IC50_VALUE
Protocol: Cell Titer Glo measures ATP, thus the IC50s represent both the effect on purine production and cell proliferation, which are related. […] Cells were cultured using recommended culture conditions unless noted otherwise (Supplemental Table 3). Cells were plated, dosed with compound and incubated at 37 °C for approximately 2 doubling times as determined for each cell line. […]
OBSERVED_PROPERTY: IC50 (µM)

STRUCTURE_NOTATION: O=c1[nH]ccc2cc(F)c(NS(=O)(=O)c3ccc(N4CC[C@@H](O)C4)s3)cc12
EXPERIMENTAL_VALUE: 4.52

* * *

system: panel of human cell lines; assay: In vitro proliferation assay, Cell Titer Glo, two doubling times, 298 cell lines; assay type: cell-based; details: Homo sapiens, SW-620, SW620 (large intestine, colon, adenocarcinoma); read-out: ABS_IC50_VALUE
pIC50: −log10 of the molar value.

STRUCTURE_NOTATION: O=c1[nH]ccc2cc(F)c(NS(=O)(=O)c3ccc(N4CC[C@@H](O)C4)s3)cc12
pIC50: < 4.70
